The entries below come with measured Mouse Hepatic Microsome CLh,int NADPH(-) values attached.
- Test: Metabolic stability test: liver microsomal stability assay
- Type: in vitro ADME, mouse
- Experimental setup: mouse liver microsomes 0.5 mg protein/mL, compound 1 µM, absence of NADPH
Starred links: 1 amine or outer side, 2 acyl side, 3 side chain; linkers in the order of their positions; H or OH if unused. Positions of bridges follow the written chain, without caps; N, C: chain ends. Non-standard residues stand in square brackets, D forms with d. Residues, ends and D or L forms follow the SMILES beside them. *: point of attachment. NMeF = CN[C@@H](Cc1ccccc1)C(=O)O; NMeGABA = CN(CCCC(=O)[*:2])[*:1]; NMeI = CC[C@H](C)[C@H](NC)C(=O)O; NMeT = CN[C@H](C(=O)O)[C@@H](C)O; hPhe = N[C@@H](CCc1ccccc1)C(=O)O; NMeL = CN[C@@H](CC(C)C)C(=O)O; NMeV = CN[C@H](C(=O)O)C(C)C; d(β3hA) = C[C@@H](N)CC(=O)O; NMeAbu = CC[C@H](NC)C(=O)O; NMeA = CN[C@@H](C)C(=O)O; Piperidide = C1CCN(*)CC1; tBu = CC(C)(C)*
Reported metric: Mouse Hepatic Microsome CLh,int NADPH(-) (µL/min/mg Protein)

Compound	Endpoint result
CC[C@H](C)[C@H]1C(=O)N[C@@H](Cc2ccccc2)C(=O)N2CCC[C@H]2C(=O)N(C)[C@@H](CC(C)C)C(=O)N[C@@H](COC(C)(C)C)C(=O)N(C)[C@@H](Cc2ccccc2)C(=O)N[C@@H]([C@@H](C)O)C(=O)N(C)[C@@H](CC)C(=O)N2CCC[C@H]2C(=O)N(C)[C@@H](CC(C)C)C(=O)N[C@@H](C(C)C)C(=O)N[C@H](C(=O)N2CCCCC2)CC(=O)N(C)CCCC(=O)N(C)[C@@H](CC(C)C)C(=O)N1C [pd042] ([NMeGABA][NMeL][NMeI]FP[NMeL]S(tBu)[NMeF]T[NMeAbu]P[NMeL]VD-Piperidide; lactam N-14)	18.1
CC[C@H](C)[C@@H]1NC(=O)[C@H](C)N(C)C(=O)CCCN(C)C(=O)C[C@@H](C)NC(=O)[C@H](C(C)C)N(C)C(=O)[C@H](CC(C)C)N(C)C(=O)[C@H](C)N(C)C(=O)[C@H]([C@@H](C)O)N(C)C(=O)[C@H](CCc2ccccc2)NC(=O)[C@H](C(C)C)NC(=O)[C@H](Cc2ccccc2)N(C)C(=O)[C@H](CC)N(C)C(=O)[C@H](C)N(C)C(=O)[C@H](C(C)C)N(C)C1=O [pd059] (cyclo(I[NMeV][NMeA][NMeAbu][NMeF]V[hPhe][NMeT][NMeA][NMeL][NMeV][d(β3hA)][NMeGABA][NMeA]))	18.6

* * *

- Test: Membrane permeability test using Caco-2 cells with preincubation
- Assay type: in vitro ADME
- Experimental setup: Caco-2; preincubation 20 to 24 hours; Apical FaSSIF/HBSS pH 6.0, Basal HBSS 4% BSA pH 7.4; 180 minutes; read-out: Caco2 Papp
Starred links: 1 amine or outer side, 2 acyl side, 3 side chain; linkers in the order of their positions; H or OH if unused. Positions of bridges follow the written chain, without caps; N, C: chain ends. Non-standard residues stand in square brackets, D forms with d. Residues, ends and D or L forms follow the SMILES beside them. *: point of attachment. NMeF = CN[C@@H](Cc1ccccc1)C(=O)O; NMeGABA = CN(CCCC(=O)[*:2])[*:1]; NMeT = CN[C@H](C(=O)O)[C@@H](C)O; NMeβAla = CN(CCC(=O)[*:2])[*:1]; NMeL = CN[C@@H](CC(C)C)C(=O)O; NMeV = CN[C@H](C(=O)O)C(C)C; NMeAbu = CC[C@H](NC)C(=O)O; NMeA = CN[C@@H](C)C(=O)O; Piperidide = C1CCN(*)CC1; Abu = CC[C@H](N)C(=O)O; Sar = CNCC(=O)O; tBu = CC(C)(C)*

Compound	Unit abbrev	Papp A→B
CC[C@H](C)[C@@H]1NC(=O)[C@H](C)NC(=O)[C@H](CC(C)C)N(C)C(=O)[C@H](COC(C)(C)C)NC(=O)[C@H](CC(C)C)N(C)C(=O)[C@@H]2CCCN2C(=O)[C@H](Cc2ccccc2)NC(=O)CCN(C)C(=O)[C@H](CC(C)C)N(C)C(=O)CCCN(C)C(=O)C[C@@H](C(=O)N2CCCCC2)NC(=O)[C@H](Cc2ccccc2)N(C)C(=O)[C@H](CC(C)C)NC(=O)[C@H](CC)N(C)C1=O [pd017] ([NMeGABA][NMeL][NMeβAla]FP[NMeL]S(tBu)[NMeL]AI[NMeAbu]L[NMeF]D-Piperidide; lactam N-14)	nm/s	0.9
CC[C@@H]1NC(=O)[C@H](Cc2ccccc2)N(C)C(=O)[C@H](CC(C)C)NC(=O)CNC(=O)[C@H]([C@@H](C)O)N(C)C(=O)[C@H](CC(C)C)N(C)C(=O)[C@H]([C@@H](C)CC)NC(=O)[C@H](Cc2ccccc2)N(C)C(=O)CN(C)C(=O)C[C@@H](C(=O)N2CCCCC2)NC(=O)[C@H](C(C)C)N(C)C(=O)[C@H](CC(C)C)NC(=O)[C@H](C)N(C)C1=O [pd105] ([Sar][NMeF]I[NMeL][NMeT]GL[NMeF][Abu][NMeA]L[NMeV]D-Piperidide; lactam N-13)	nm/s	1.1

* * *

The entries below come with measured microsomal CLint at 1 µM values attached.
- Test: Metabolic stability test: liver microsomal stability assay
- Assay type: in vitro ADME, mouse
- Experimental setup: male, pH 7.4; mouse liver microsomes 0.5 mg protein/mL, compound 1 µM, presence of NADPH; read-out: Mouse Hepatic Microsome CLh,int NADPH(+)
Starred links: 1 amine or outer side, 2 acyl side, 3 side chain; linkers in the order of their positions; H or OH if unused. Positions of bridges follow the written chain, without caps; N, C: chain ends. Non-standard residues stand in square brackets, D forms with d. Residues, ends and D or L forms follow the SMILES beside them. *: point of attachment. NMeF = CN[C@@H](Cc1ccccc1)C(=O)O; NMeGABA = CN(CCCC(=O)[*:2])[*:1]; NMeβAla = CN(CCC(=O)[*:2])[*:1]; NMeL = CN[C@@H](CC(C)C)C(=O)O; NMeAbu = CC[C@H](NC)C(=O)O; NMeA = CN[C@@H](C)C(=O)O; Piperidide = C1CCN(*)CC1; Abu = CC[C@H](N)C(=O)O; NBuGly = CCCCNCC(=O)O
Reported metric: microsomal CLint at 1 µM (µL/min/mg)

Compound	Reported metric	Unit abbrev	Endpoint result
CCCCN1CC(=O)N[C@@H]([C@@H](C)CC)C(=O)N(C)[C@@H](CC(C)C)C(=O)N[C@@H](C(C)C)C(=O)N[C@H](C(=O)N2CCCCC2)CC(=O)N(C)[C@@H](C)C(=O)N(C)[C@@H](CC(C)C)C(=O)N[C@@H]([C@@H](C)O)C(=O)N(C)[C@@H](Cc2ccccc2)C(=O)N[C@@H](CC)C(=O)N(C)[C@@H](Cc2ccccc2)C(=O)N[C@@H](C)C(=O)N(C)CCC(=O)N[C@@H](CC(C)C)C1=O [pd026] ([NMeA][NMeL]T[NMeF][Abu][NMeF]A[NMeβAla]L[NBuGly]I[NMeL]VD-Piperidide; lactam N-14)	microsomal CLint at 1 µM	µL/min/mg	63.5
CC[C@H]1C(=O)N(C)[C@@H](CC(C)C)C(=O)N[C@@H]([C@@H](C)O)C(=O)N(C)[C@@H](C)C(=O)N(C)[C@@H](CC(C)C)C(=O)N[C@H](C(=O)N2CCCCC2)CC(=O)N(C)CCCC(=O)N[C@@H](CC(C)C)C(=O)N(C)[C@@H](CC(C)C)C(=O)N(C)[C@@H](C)C(=O)N(C)[C@@H](Cc2ccccc2)C(=O)N[C@@H](C)C(=O)N(C)[C@@H](Cc2ccccc2)C(=O)N1C [pd117] ([NMeGABA]L[NMeL][NMeA][NMeF]A[NMeF][NMeAbu][NMeL]T[NMeA][NMeL]D-Piperidide; lactam N-13)	microsomal CLint at 1 µM	µL/min/mg	25.9

* * *

- Test: Membrane permeability test using Caco-2 cells with preincubation
- Type: in vitro ADME
- Experimental setup: Caco-2; preincubation 20 to 24 hours; Apical FaSSIF/HBSS pH 6.0, Basal HBSS 4% BSA pH 7.4; 180 minutes; read-out: Caco2 Papp
Starred links: 1 amine or outer side, 2 acyl side, 3 side chain; linkers in the order of their positions; H or OH if unused. Non-standard residues stand in square brackets, D forms with d. Residues, ends and D or L forms follow the SMILES beside them. *: point of attachment. NMedβ3hAla = C[C@H](CC(=O)[*:2])N(C)[*:1]; NMeF = CN[C@@H](Cc1ccccc1)C(=O)O; NMeT = CN[C@H](C(=O)O)[C@@H](C)O; NMeL = CN[C@@H](CC(C)C)C(=O)O; NMeV = CN[C@H](C(=O)O)C(C)C; NMeAbu = CC[C@H](NC)C(=O)O; NMeA = CN[C@@H](C)C(=O)O; tBu = CC(C)(C)*

Compound	Papp A→B
CC[C@H]1C(=O)N[C@@H](COC(C)(C)C)C(=O)N(C)[C@@H](C(C)C)C(=O)N(C)[C@@H](C)C(=O)N(C)[C@H](C)CC(=O)N[C@H](C(C)C)C(=O)N(C)[C@@H](CC(C)C)C(=O)N[C@@H](C)C(=O)N(C)[C@@H](C(C)C)C(=O)N(C)[C@@H](CC(C)C)C(=O)NCC(=O)N(C)[C@@H]([C@@H](C)O)C(=O)N(C)[C@@H](Cc2ccccc2)C(=O)N1C [pd147] (cyclo(A[NMeV][NMeL]G[NMeT][NMeF][NMeAbu]S(tBu)[NMeV][NMeA][NMedβ3hAla][dV][NMeL]))	0.26 ×10⁻⁶ cm/s
